Ref: paper PMC4003389

Measured Target: CcapOBP83a-2 (Ceratitis capitata)
Sequence (W8W3U3 entry or part of it): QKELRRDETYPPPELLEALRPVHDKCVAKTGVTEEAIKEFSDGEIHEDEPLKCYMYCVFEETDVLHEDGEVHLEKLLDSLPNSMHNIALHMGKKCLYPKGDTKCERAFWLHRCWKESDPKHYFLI
Protocol Text: biochemical
Assay type: binding
Measurement Context: first fraction; 1-NPN 3 μM; read-out: Ki (dissociation constant)
Measurement Name: pKi
pKi is defined as minus the log10 of a concentration measured in mol/L.

# Compound, Measured Target, pKi
records = [
    ("C=C/C(C)=C/C/C=C(\\C)CCC=C(C)C [(E,E)-α-Farnesene]", "CcapOBP83a-2 (Ceratitis capitata)", 5.18),
    ("C=C/C(C)=C\\CC=C(C)C [(Z)-Ocimene]", "CcapOBP83a-2 (Ceratitis capitata)", 5.35),
]

// field: pKi; key: C=CC(=C)CC/C=C(\C)CCC=C(C)C [(E)-β-Farnesene, reference compound] ; value = 5.85

* * *

Measured Target: UniProt:W8W3U3
Records here are stratified by IC50; strata: bottom end = under 10 µM, midrange = from 10 µM up to 20 µM, top end = 20 µM and over

# Compound, Answer Label
measured = [
    ("CC(=O)OC/C=C(\\C)CCC=C(C)C [Geranyl acetate]", "bottom end"),
]

Just checking, what class would you give C=C/C(C)=C/C/C=C(\C)CCC=C(C)C [(E,E)-α-Farnesene] here? bottom end

Just checking, what class would you give CCCC/C=C/CC(=O)OCC [Ethyl (E)-3-octenoate] here? midrange

Just checking, what class would you give C=C/C(C)=C/CC=C(C)C [(E)-Ocimene] here? top end

Just checking, what class would you give CCCCCCCC(=O)OCC [Ethyl octanoate, reference compound] here? midrange

Just checking, what class would you give CC1CC(Cl)CCC1C(=O)OC(C)(C)C (stereo not shown) [Trimedlure, reference compound] here? bottom end

Just checking, what class would you give C=C/C(C)=C\CC=C(C)C [(Z)-Ocimene] here? midrange

Just checking, what class would you give C=CCc1ccc(OC)c(OC)c1 [Methyleugenol, reference compound] here? top end

Just checking, what class would you give C=CC(C)(O)CCC=C(C)C (racemic) [(RS)-Linalool] here? top end

* * *

Tested on: antennae of male and female C. capitata
Protocol Text: Coupled GC–EAG of male volatile extract on medfly antennae
Set-up: species or system Ceratitis capitata
Measurement Context: male antennae; in a total of five replicates; GC–EAG
Description: Electrical responses to chemical stimuli were recorded from the antennae of both sexes using 4 day-old virgin individuals. […] Signals were passed through a high impedance amplifier (UN-06, Hilversum, The Netherlands) and analysed using a customised software package (Syntech). […] Outputs from the EAG amplifier and the FID were monitored simultaneously and analysed using the Syntech software package. […]
Measurement Name: EAG response: number of males (M) that showed a positive EAG response
Write the number on its own, no unit after it.

Consider the reported EAG response: number of males (M) that showed a positive EAG response for these compounds:
# Compound, Measured Target, Value
rows = [
    ("C[C@@H](O)[C@@H](C)O [(RR)-2,3-Butanediol]", "antennae of male and female C. capitata", 2),
    ("CCC(C)C(C)=O (racemic) [(RS)-3-Methylpentan-2-one]", "antennae of male and female C. capitata", 0),
    ("C=CC(C)(O)CCC=C(C)C (racemic) [(RS)-Linalool]", "antennae of male and female C. capitata", 4),
    ("OC1COCC1O (centres unmarked) [Tetrahydro-3,4-furandiol]", "antennae of male and female C. capitata", 2),
    ("CC(=O)OC/C=C(\\C)CCC=C(C)C [Geranyl acetate]", "antennae of male and female C. capitata", 5),
]

Record C=CC(=C)CCC=C(C)C [Myrcene] / antennae of male and female C. capitata, EAG response: number of males (M) that showed a positive EAG response recorded as 0

Record CC1CCOC1=O (centres unmarked) [Dihydro-3-methyl-2-(3H)-furanone] / antennae of male and female C. capitata, EAG response: number of males (M) that showed a positive EAG response recorded as 3

Record C=C/C(C)=C/C/C=C(\C)CCC=C(C)C [(E,E)-α-Farnesene] / antennae of male and female C. capitata, EAG response: number of males (M) that showed a positive EAG response recorded as 2

Record C=C/C(C)=C/CC=C(C)C [(E)-Ocimene] / antennae of male and female C. capitata, EAG response: number of males (M) that showed a positive EAG response recorded as 0
